- system_name: rhinovirus HRV3C protease (Human rhinovirus 14)
- Sequence (P03303 1538-1719 limits assumed): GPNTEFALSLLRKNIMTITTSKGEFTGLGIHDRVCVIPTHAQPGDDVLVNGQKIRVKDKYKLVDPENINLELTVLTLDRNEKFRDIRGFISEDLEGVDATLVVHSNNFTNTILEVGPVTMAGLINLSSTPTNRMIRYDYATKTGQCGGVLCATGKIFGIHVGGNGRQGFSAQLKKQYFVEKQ
property: pIC50
API: returns pIC50 as number; meaning -log10 of concentration in mol/L.

Tell me measured pIC50 for CCOC(=O)/C=C/[C@H](C[C@@H]1CCNC1=O)NC(=O)[C@@H](CC(=O)[C@@H](NC(=O)c1cc(C)on1)C(C)C)Cc1ccc(F)cc1 please.
8.98

----------
Record: pIC50 reported on UniProt P07711.
Sequence (P07711 114-333): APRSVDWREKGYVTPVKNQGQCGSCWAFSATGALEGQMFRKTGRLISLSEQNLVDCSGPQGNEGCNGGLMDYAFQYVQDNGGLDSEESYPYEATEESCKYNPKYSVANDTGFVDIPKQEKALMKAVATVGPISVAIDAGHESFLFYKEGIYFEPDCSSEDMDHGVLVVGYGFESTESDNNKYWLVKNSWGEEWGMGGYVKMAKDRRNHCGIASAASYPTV
API: returns pIC50 as number; meaning -log10 of concentration in mol/L.

molecule="CC(C)(C)NC(=O)N[C@H](C(=O)N1C[C@H]2[C@@H]([C@H]1C(=O)NC(CC1CCC1)C(=O)C(N)=O)C2(C)C)C(C)(C)C (some centres unmarked)" reading=5.64

Okay, next one:
# lookup: UniProt P07711 pIC50, key = CCOC(=O)/C=C/[C@H](C[C@@H]1CCNC1=O)NC(=O)[C@@H](CC(=O)[C@@H](NC(=O)c1cc(C)on1)C(C)C)Cc1ccc(F)cc1
5.36
